system: HCV replicon; test: microbe, parasite or virus in culture; type: cell-based, hepatitis C virus; details: Hepatitis C virus, read-out: Replicon IC50 μM
Record form. Attribute: IC50. Fill in for each entry.

(Q) Need IC50, item CCn1c(-c2ccc(N3CCN(C)S3(=O)=O)cc2)c(C#N)c2ccc(OC)cc21 [Compound 726]
(A) 0.5 to 2 µM

(Q) Name the recorded IC50 for CCn1c(-c2ccc(O)c(N)c2)c(C#N)c2ccc(OC)cc21 [Compound 322] .
(A) > 2 µM

(Q) Would you mind telling me what IC50 value was observed for CCn1cc(C#N)c2ccc(OC)cc21 [Compound 5] ?
(A) > 2 µM

(Q) Please report the recorded IC50 for COc1ccc(-n2cc(C#N)c3cc4c(cc32)OCO4)cc1 [Compound 44] .
(A) > 2 µM

(Q) Can you share its IC50? I mean this molecule: CCn1c(C#Cc2ccc(NC(=O)C3CC3)cc2)c(C#N)c2ccc(O)cc21 [Compound 194]
(A) 0.5 to 2 µM

(Q) Please look up its IC50: CCn1c(-c2ccc(C(=O)N3CCOCC3)cc2)c(C#N)c2cc(OC)ccc21 [Compound 245]
(A) > 2 µM

(Q) Endpoint output: IC50 of CCc1nc(-c2cn(CC)c3cc(OC)ccc23)no1 [Compound 28] . Value?
(A) 0.5 to 2 µM

---

Could you please report measured IC50 for the items listed next?
system: HCV replicon; assay: microbe, parasite or virus in culture; assay type: cell-based, hepatitis C virus; details: Hepatitis C virus, read-out: Replicon IC50 μM

(Q) Form field: reported IC50 of CCn1c(C#Cc2ccc(NC(C)=O)cc2)c(C#N)c2ccc(OC)cc21 [Compound 138]
(A) 0.5 to 2 µM

(Q) Sample COc1ccc2c(C#N)c(-c3ccc(N4CCCS4(=O)=O)cc3)n(CC3CC3)c2c1 [Compound 716] — what was its IC50?
(A) < 0.5 µM

(Q) Requested field: IC50. Item: CCn1c(-c2ccc3c(c2)N(C)C(=O)CO3)c(C#N)c2ccc(OC)cc21 [Compound 339]
(A) 0.5 to 2 µM

(Q) Sample CCn1c(C#Cc2ccc(NC=O)cc2)c(C#N)c2ccc(OC)cc21 [Compound 241] — what was its IC50?
(A) > 2 µM

(Q) Reported IC50, molecule CCn1c(-c2ccc(NS(C)(=O)=O)cc2)c(C#N)c2ccc(O)cc21 [Compound 189] : ____
(A) > 2 µM

(Q) // returns reported IC50 for input CCn1cc(-c2nccs2)c2ccc(OC)cc21 [Compound 73]
(A) > 2 µM

(Q) Find the recorded IC50 belonging to CCCn1c(-c2ccc(N3CCCS3(=O)=O)cc2)c(-c2cnco2)c2ccc(OC)cc21 [Compound 805] and report it.
(A) > 2 µM

(Q) Looking for the measured IC50 of CCn1c(-c2ccc(N(C)S(=O)(=O)CCN3CCOCC3)cc2)c(C#N)c2ccc(OC)cc21 [Compound 668] , can you help?
(A) 0.5 to 2 µM

(Q) // lookup IC50 for CCn1c(-c2ccc(NS(=O)(=O)CCN3CCOCC3)cc2)c(C#N)c2ccc(OC)cc21 [Compound 653]
(A) > 2 µM

(Q) Please give the measured IC50 for this molecule: CCn1c(C#Cc2ccc(N3CCNC3=O)cc2)c(C#N)c2ccc(OC)cc21 [Compound 166]
(A) < 0.5 µM

(Q) Entry CCn1c(C#Cc2ccc(NS(C)(=O)=O)cc2)c(C#N)c2ccc(OC)cc21 [Compound 130] has what IC50?
(A) < 0.5 µM

(Q) Look up IC50: CCn1c(-c2ccc(OCCN)cc2)c(C#N)c2ccc(OC)cc21 [Compound 267]
(A) > 2 µM

(Q) May I ask what IC50 has been recorded for CCn1c(-c2ccc(OCCBr)cc2)c(C#N)c2ccc(OC)cc21 [Compound 253] ?
(A) 0.5 to 2 µM

(Q) Need IC50, item CCn1c(N2CCN(S(=O)(=O)C3CC3)CC2)c(C#N)c2ccc(C(F)(F)F)cc21 [Compound 842]
(A) > 2 µM

(Q) Reported IC50, molecule CCn1c(-c2ccc(N3CCNS3(=O)=O)cc2)c(C#N)c2ccc(OC)cc21 [Compound 725] : ____
(A) 0.5 to 2 µM

(Q) Need IC50 of CCOc1ccc(-c2c(C#N)c3ccc(NC(=O)OC(C)(C)C)cc3n2CC)cc1 [Compound 832] , thanks.
(A) 0.5 to 2 µM

(Q) What does the data say about its IC50? Entry: CCn1c(-c2ccc3oc(=O)[nH]c3c2)c(C#N)c2ccc(OC)cc21 [Compound 332]
(A) > 2 µM

(Q) If you can, please state the reported IC50 value of CCn1cc(-c2ccno2)c2ccc(OC)cc21 [Compound 58] .
(A) > 2 µM

---

Please respond with reported melting point for every item in the list.

(Q) Which melting point value is on record for CCn1c(-c2ccc(NS(C)(=O)=O)cc2)c(C#N)c2ccc(O)cc21 [Compound 189] ?
(A) 252 to 253 °C

(Q) // query melting point value for entry CCOc1ccc2c(C(=O)N(C)C)c(-c3ccc(N4C(=O)CN(C)C4=O)cc3)n(CC)c2c1 [Compound 781]
(A) 207 to 208 °C

(Q) Any idea what its melting point is? The compound is CCn1cc(C#N)c2ccc(OC)cc21 [Compound 5]
(A) 64 to 66 °C

(Q) Form field: reported melting point of CCn1cc(C#N)c2ccc(C(=O)Nc3ccccc3)cc21 [Compound 15]
(A) 225 to 226 °C

(Q) Query: melting point; subject: CCn1cc(-c2ccccc2)c2cc([N+](=O)[O-])ccc21 [Compound 41, N-ethyl-3-phenyl-5-nitroindole]
(A) 155 to 175 °C

---

MEASURED ENDPOINT: melting point

(Q) Consider the molecule CCn1c(-c2ccc(OCCOC)cc2)c(C#N)c2ccc(OC)cc21 [Compound 248] and give its measured melting point.
(A) 117 to 121 °C

(Q) For CC(C)OC(=O)Nc1ccc(-c2c(C#N)c3ccc(OCCCn4cncn4)cc3n2C2CCC2)cc1 [Compound 1255] , what is its reported melting point?
(A) 208 °C

(Q) // query melting point value for entry CCOC(=O)CNC(=O)Nc1ccc(-c2c(C#N)c3ccc(OCC)cc3n2CC)cc1 [Compound 773]
(A) 191 to 193 °C

(Q) Quick one: melting point for CCn1c(-c2ccc3c(c2)NC(=O)CO3)c(C#N)c2ccc(OC)cc21 [Compound 334] ?
(A) 242 to 246 °C

(Q) Quick check: melting point of CCOc1ccc2c(C#N)cn(CC)c2c1 [Compound 9] ?
(A) 61 to 63 °C

(Q) Find the recorded melting point belonging to CCn1cc(C#N)c2ccc(Oc3cnccn3)cc21 [Compound 13] and report it.
(A) 161 to 164 °C

(Q) Item under review: CCOC(=O)Nc1ccc2c(C#N)c(-c3ccc(OCC)cc3)n(CC)c2c1 [Compound 838] . Reported melting point?
(A) 193 to 194 °C

(Q) Can you look up the measured melting point of CCn1c(-c2ccc3[nH]c(=O)oc3c2)c(C#N)c2ccc(OC)cc21 [Compound 340] for me?
(A) 243 to 248 °C

(Q) Would you kindly share the measured melting point for CCn1cc(-c2ccno2)c2ccc(OC)cc21 [Compound 58] ?
(A) 76 to 79 °C

---

MEASURED ENDPOINT: melting point

(Q) Data request, read-out melting point, for `CCn1c(-c2ccc(N3CCN(C)S3(=O)=O)cc2)c(C#N)c2ccc(OC)cc21`
(A) 221 to 222 °C

(Q) What does the data say about its melting point? Entry: `CCn1c(I)c(C#N)c2cc([N+](=O)[O-])c(OC)cc21`
(A) 235 to 250 °C

(Q) Reported melting point, compound `CCOC(=O)Nc1ccc(-c2c(C#N)c3ccc(OC)cc3n2CC)cc1` : ____
(A) 167 to 169 °C

(Q) Return reported melting point; argument: `CCn1c(-c2ccc(O)c(NC(=O)CCl)c2)c(C#N)c2ccc(OC)cc21`
(A) 237 to 240 °C

(Q) What does the data say about its melting point? Entry: `CCn1c(-c2ccc(O)c(N)c2)c(C#N)c2ccc(OC)cc21`
(A) 223 to 230 °C

(Q) For `CCn1c(C#Cc2ccc(NC(C)=O)cc2)c(C#N)c2ccc(OC)cc21` , what is its reported melting point?
(A) 235 to 239 °C

(Q) Which melting point reading was recorded for the compound `CCn1c(-c2ccc(N3CCCS3(=O)=O)cc2)c(C#N)c2ccc(OCCN3CCOCC3)cc21` ?
(A) 213 to 217 °C

(Q) # query: melting point of entry `CCn1c(-c2ccc(C(=O)N3CCOCC3)cc2)c(C#N)c2cc(OC)ccc21`
(A) 192 to 195 °C

---

MEASURED ENDPOINT: melting point

(Q) Would you mind telling me what melting point value was observed for CCn1c(-c2ccc(NC(=O)C3CC3)cc2)c(C#N)c2ccc(OCCn3ccnc3)cc21 [Compound 1183] ?
(A) 202.3 to 205.9 °C

(Q) Record request: melting point value, item CCOc1ccc2c(C#N)c(-c3ccc(NC(=O)NC(Cc4ccccc4)C(=O)OC)cc3)n(CC)c2c1 (centres unmarked) [Compound 777]
(A) 124 to 127 °C

(Q) Any idea what its melting point is? The compound is CCc1nnc(-c2cn(CC)c3cc(OC)ccc23)o1 [Compound 54]
(A) 99 to 101 °C

(Q) Using the record for CCn1cc(-c2ccn[nH]2)c2ccc(OC)cc21 [Compound 59] , report its melting point.
(A) 81 to 85 °C

(Q) Which melting point value is on record for CCn1c(-c2ccc(N3CCCS3(=O)=O)cc2)c(C#N)c2ccc(OC(F)(F)F)cc21 [Compound 903] ?
(A) 230 to 232 °C
